run description: Log P value
Format: physicochemical
test readout: logP
Give bare numbers.

Problem: Return reported logP; argument: CCC(=O)O[C@]1(C(=O)SCF)[C@H](C)C[C@H]2[C@@H]3C[C@H](F)C4=CC(=O)C=C[C@]4(C)[C@@]3(F)[C@@H](O)C[C@@]21C [Active Agent 1]
Result: 3.7
